Listed here: items and their measured EGFR binding POC.
target: EGFR (Homo sapiens, UniProt P00533); assay: scanMAX binding POC, EGFR; settings: 1 μM
Sequence (P00533 25-1210): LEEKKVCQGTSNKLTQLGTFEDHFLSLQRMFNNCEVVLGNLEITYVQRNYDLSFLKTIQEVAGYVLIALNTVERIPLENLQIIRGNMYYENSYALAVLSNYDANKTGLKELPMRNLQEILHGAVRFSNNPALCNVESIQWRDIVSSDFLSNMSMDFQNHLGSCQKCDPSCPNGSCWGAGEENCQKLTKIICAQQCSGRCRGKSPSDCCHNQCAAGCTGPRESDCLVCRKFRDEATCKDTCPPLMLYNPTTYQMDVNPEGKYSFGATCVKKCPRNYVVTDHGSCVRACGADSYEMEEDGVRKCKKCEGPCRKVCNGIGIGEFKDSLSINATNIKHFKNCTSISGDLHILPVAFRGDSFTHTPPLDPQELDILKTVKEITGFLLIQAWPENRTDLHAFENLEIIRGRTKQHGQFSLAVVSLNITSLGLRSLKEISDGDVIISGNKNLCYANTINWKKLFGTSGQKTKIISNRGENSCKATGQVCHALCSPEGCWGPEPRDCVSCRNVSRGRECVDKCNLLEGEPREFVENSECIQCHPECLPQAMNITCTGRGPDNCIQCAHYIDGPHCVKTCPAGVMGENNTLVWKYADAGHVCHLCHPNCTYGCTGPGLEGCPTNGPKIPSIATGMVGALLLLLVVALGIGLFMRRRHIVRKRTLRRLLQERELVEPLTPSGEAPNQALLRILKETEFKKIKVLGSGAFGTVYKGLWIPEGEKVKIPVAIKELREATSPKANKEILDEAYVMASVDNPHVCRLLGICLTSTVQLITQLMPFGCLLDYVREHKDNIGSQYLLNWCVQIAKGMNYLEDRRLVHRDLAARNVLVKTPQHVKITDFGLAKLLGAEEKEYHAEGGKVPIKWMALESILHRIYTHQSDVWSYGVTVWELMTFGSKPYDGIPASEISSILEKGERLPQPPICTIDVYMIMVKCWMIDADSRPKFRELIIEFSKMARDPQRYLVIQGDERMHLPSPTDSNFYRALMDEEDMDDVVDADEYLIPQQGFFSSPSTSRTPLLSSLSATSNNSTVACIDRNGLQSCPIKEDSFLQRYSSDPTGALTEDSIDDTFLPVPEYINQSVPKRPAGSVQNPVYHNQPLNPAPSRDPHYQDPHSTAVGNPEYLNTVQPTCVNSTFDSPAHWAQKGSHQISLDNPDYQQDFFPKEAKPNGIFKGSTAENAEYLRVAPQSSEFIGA

# CHEMICAL_STRING, EGFR binding POC
data = [
    ("C=CC(=O)N1CCC[C@@H](n2nc(-c3ccc(Oc4ccccc4)cc3)c3c(N)ncnc32)C1", "0% of control"),
    ("CC#CC(=O)N1CCC[C@H]1c1nc(-c2ccc(C(=O)Nc3ccccn3)cc2)c2c(N)nccn12", "61% of control"),
    ("CC#CC(=O)N1CC[C@@H](n2c(=O)n(-c3ccc(Oc4ccccc4)cc3)c3c(N)ncnc32)C1", "74% of control"),
]

The recorded EGFR binding POC for entry C=CC(=O)N1CCC(CNc2ncnc(N)c2-c2ccc(Oc3ccccc3)cc2)CC1 equals 88% of control

Recorded result, C=CC(=O)N1CCC[C@@H](c2ccc(C(N)=O)c3[nH]ccc23)C1 , EGFR binding POC: 90% of control

Reference source for all entries: paper PMC11997881
